Each recorded value in this set is attributed to patent US12599590B2.

test: Canine pharmacokinetics of enteric coated formulations at 0.15 mg/kg (T1) and 0.75 mg/kg (T5); assay type: in vivo; settings: dog, blood, po, 0.15 mg/kg, dogs, oral enteric coated formulation, T1 0.15 mg/kg, Arith. Mean
property: Cmax (ng/mL)
Quick note: give the figure in ng/mL, leave out the unit.

**Q:** Identify measured Cmax corresponding to `CO[C@H]1C[C@@H]2CC[C@@H](C)[C@@](O)(O2)C(=O)C(=O)N2CCCC[C@H]2C(=O)O[C@H]([C@H](C)C[C@@H]2CC[C@@H](O)[C@H](OC)C2)CC(=O)[C@H](C)/C=C(\C)[C@@H](O)[C@@H](OC)C(=O)[C@H](C)C[C@H](C)/C=C/C=C/C=C/1C`
**A:** 2.23

----------
assay: Canine pharmacokinetics of enteric coated formulations at 0.15 mg/kg (T1) and 0.75 mg/kg (T5); type: in vivo; settings: dog, blood, po, 0.75 mg/kg, dogs, oral enteric coated formulation, T5 0.75 mg/kg, Arith. Mean
property: AUC(0-t)

**Q:** Identify measured AUC(0-t) corresponding to `CO[C@H]1C[C@@H]2CC[C@@H](C)[C@@](O)(O2)C(=O)C(=O)N2CCCC[C@H]2C(=O)O[C@H]([C@H](C)C[C@@H]2CC[C@@H](O)[C@H](OC)C2)CC(=O)[C@H](C)/C=C(\C)[C@@H](O)[C@@H](OC)C(=O)[C@H](C)C[C@H](C)/C=C/C=C/C=C/1C`
**A:** 111 ng·h/mL

----------
assay: Feline repeat dose toxicokinetic study of oral enteric-coated formulations; assay type: in vivo; details: whole blood, 0.75 mg/kg, cats, oral enteric-coated formulation, 0.75 mg/kg, Day 0, whole blood, Mean, read-out: AUC0-72
property: AUC(0-t) (ng·h/mL)
Quick note: give the figure in ng·h/mL, leave out the unit.

**Q:** Identify measured AUC(0-t) corresponding to `CO[C@H]1C[C@@H]2CC[C@@H](C)[C@@](O)(O2)C(=O)C(=O)N2CCCC[C@H]2C(=O)O[C@H]([C@H](C)C[C@@H]2CC[C@@H](O)[C@H](OC)C2)CC(=O)[C@H](C)/C=C(\C)[C@@H](O)[C@@H](OC)C(=O)[C@H](C)C[C@H](C)/C=C/C=C/C=C/1C`
**A:** 135

----------
assay: Feline repeat dose toxicokinetic study of oral enteric-coated formulations; assay type: in vivo; conditions: whole blood, 0.75 mg/kg, cats, oral enteric-coated formulation, 0.75 mg/kg three times a week, Day 26, whole blood, Mean
property: Tmax (h)
Quick note: give the figure in h, leave out the unit.

**Q:** Identify measured Tmax corresponding to `CO[C@H]1C[C@@H]2CC[C@@H](C)[C@@](O)(O2)C(=O)C(=O)N2CCCC[C@H]2C(=O)O[C@H]([C@H](C)C[C@@H]2CC[C@@H](O)[C@H](OC)C2)CC(=O)[C@H](C)/C=C(\C)[C@@H](O)[C@@H](OC)C(=O)[C@H](C)C[C@H](C)/C=C/C=C/C=C/1C`
**A:** 2

----------
assay: Feline repeat dose toxicokinetic study of oral enteric-coated formulations; type: in vivo; conditions: whole blood, 0.15 mg/kg, cats, oral enteric-coated formulation, 0.15 mg/kg, Day 0, whole blood, Mean
property: Cmax (ng/mL)
Quick note: give the figure in ng/mL, leave out the unit.

**Q:** Identify measured Cmax corresponding to `CO[C@H]1C[C@@H]2CC[C@@H](C)[C@@](O)(O2)C(=O)C(=O)N2CCCC[C@H]2C(=O)O[C@H]([C@H](C)C[C@@H]2CC[C@@H](O)[C@H](OC)C2)CC(=O)[C@H](C)/C=C(\C)[C@@H](O)[C@@H](OC)C(=O)[C@H](C)C[C@H](C)/C=C/C=C/C=C/1C`
**A:** 2.85
